experiment: Median lethal dose (LD50); conditions: in vivo, po; mouse, P.O.
Attribute measured: LD50 (mg/kg)
Report the figure in mg/kg without appending any unit label.

{"Structure smiles": "N=C(N)NCc1ccc(C(=O)Oc2ccc3cc(C(=N)N)ccc3c2)o1", "LD50, mg/kg": 2000}

Turning now to a further record.
Give reported LD50 value for N=C(N)c1ccc2cc(OC(=O)c3ccc(CN)s3)ccc2c1
2500

###

The following molecules are shown together with reported pIC50 values.
biological target: Thrombin (Homo sapiens); experiment: biochemical; conditions: molar concentration inhibiting 50% of TAME hydrolysis; read-out: ID50 thrombin
pIC50 (log units): -log10 of the concentration in mol/L.

Some molecules with known pIC50 results, for comparison:
{"Molecule": "N=C(N)c1ccc2cc(OC(=O)c3ccc(CNC(=O)OCc4ccccc4)o3)ccc2c1 [compound 19]", "Target": "Thrombin (Homo sapiens)", "Attribute measured": "pIC50", "Readout number": 6.70}
{"Molecule": "N=C(N)c1ccc2cc(OC(=O)c3ccc(NC(=O)C4CCC(CN)CC4)o3)ccc2c1 (centres unmarked) [compound 37]", "Target": "Thrombin (Homo sapiens)", "Attribute measured": "pIC50", "Readout number": 6.05}
{"Molecule": "CCNC(=NC)NCc1ccc(C(=O)Oc2ccc3cc(C(=N)N)ccc3c2)o1 [compound 7]", "Target": "Thrombin (Homo sapiens)", "Attribute measured": "pIC50", "Readout number": 5.70}
{"Molecule": "CNC(=N)NCc1ccc(C(=O)Oc2ccc3cc(C(=N)N)ccc3c2)o1 [compound 6]", "Target": "Thrombin (Homo sapiens)", "Attribute measured": "pIC50", "Readout number": 5.70}
{"Molecule": "CN(C(=N)N)c1ccc(C(=O)Oc2ccc3cc(C(=N)N)ccc3c2)o1 [compound 4]", "Target": "Thrombin (Homo sapiens)", "Attribute measured": "pIC50", "Readout number": 5.10}
{"Molecule": "N=C(N)Nc1ccc(C(=O)NCc2ccc(C(=O)Oc3ccc4cc(C(=N)N)ccc4c3)o2)cc1 [compound 15]", "Target": "Thrombin (Homo sapiens)", "Attribute measured": "pIC50", "Readout number": 6.22}
{"Molecule": "CNC(=N)Nc1ccc(C(=O)Oc2ccc3cc(C(=N)N)ccc3c2)o1 [compound 5]", "Target": "Thrombin (Homo sapiens)", "Attribute measured": "pIC50", "Readout number": 6.70}
{"Molecule": "CN(C)CC(=O)NCc1ccc(C(=O)Oc2ccc3cc(C(=N)N)ccc3c2)o1 [compound 14]", "Target": "Thrombin (Homo sapiens)", "Attribute measured": "pIC50", "Readout number": 6.15}

Indicate the recorded pIC50 value for this molecule: N=C(N)c1ccc2cc(OC(=O)c3ccc(CN)s3)ccc2c1 [Compound No. 31]
6.00

Output measured pIC50 for this item: CCN=C(NCC)NCc1ccc(C(=O)Oc2ccc3cc(C(=N)N)ccc3c2)o1 [compound 8]
6.00

Output measured pIC50 for this item: N=C(N)c1ccc2cc(OC(=O)c3ccc(CNC(=O)C4CCC(CN)CC4)o3)ccc2c1 (centres unmarked) [compound 38]
7.10

Indicate the recorded pIC50 value for this molecule: N=C(N)c1ccc2cc(OC(=O)c3ccc(CCNC(=O)C4CCC(CN)CC4)o3)ccc2c1 (centres unmarked) [compound 39]
5.70

Return pIC50 for the following molecule: N=C(N)c1ccc2cc(OC(=O)c3ccc(CNC(=O)CCN)o3)ccc2c1 [compound 34]
6.30
